# Tested on: Escherichia coli
# assay_details: Growth inhibition of Escherichia coli MT102 at 500 uM after 24 hrs relative to control
# particulars: MT102, 24 h, read-out: GI
Classify by measured inhibition at 500 µM: YES if it is equal to or exceeds 3%, NO if it is smaller.

1. CC(=O)OC[C@H]1O[C@@H](OC(C)=O)[C@H](NC(=O)CCc2c[nH]c3ccccc23)[C@@H](OC(C)=O)[C@@H]1OC(C)=O NO
2. O=C(Cc1ccc(Cl)cc1)N[C@@H]1[C@@H](O)[C@H](O)[C@@H](CO)O[C@H]1O YES
3. COc1ccc(CC(=O)N[C@@H]2[C@@H](O)[C@H](O)[C@@H](CO)O[C@H]2O)cc1 NO
4. CC(=O)OC[C@H]1O[C@@H](OC(C)=O)[C@H](NC(=O)Cc2ccc(F)cc2)[C@@H](OC(C)=O)[C@@H]1OC(C)=O YES
5. COc1ccc(CC(=O)N[C@H]2[C@H](OC(C)=O)O[C@H](COC(C)=O)[C@@H](OC(C)=O)[C@@H]2OC(C)=O)cc1 YES

Query string: API: above_or_equal(metric=inhibition at 500 µM, cutoff=3%) for item CCCCCC(=O)N[C@@H]1[C@@H](O)[C@H](O)[C@@H](CO)O[C@H]1O
Result string: NO

Query string: API: above_or_equal(metric=inhibition at 500 µM, cutoff=3%) for item CCCCCCCCCC(=O)N[C@H]1[C@H](OC(C)=O)O[C@H](COC(C)=O)[C@@H](OC(C)=O)[C@@H]1OC(C)=O
Result string: YES

---

# Tested on: Pseudomonas aeruginosa
# assay_details: Inhibition of LasR-dependent quorum sensing activity in Pseudomonas aeruginosa MH602 harboring GFP-fused […] LasB promoter assessed as inhibition of 3-oxo-dodecanoyl HSL-induced GFP expression at 500 uM measured after 8 hrs by fluorescence assay relative to control
inhibition values for the compounds below.
# number only, unit % dropped from output

The following compounds have reported results that may help.
1) CC(=O)OC[C@H]1O[C@@H](OC(C)=O)[C@H](NC(=O)CCc2c[nH]c3ccccc23)[C@@H](OC(C)=O)[C@@H]1OC(C)=O 9.3
2) CCCCCCCCCC(=O)N[C@@H]1[C@@H](O)[C@H](O)[C@@H](CO)O[C@H]1O 15.7

Lab note: compound CCCC(=O)CC(=O)N[C@H]1[C@H](OC(C)=O)O[C@H](COC(C)=O)[C@@H](OC(C)=O)[C@@H]1OC(C)=O tested on Pseudomonas aeruginosa; recorded inhibition was 5.3

Lab note: compound CC(=O)OC[C@H]1O[C@@H](OC(C)=O)[C@H](NC(=O)Cc2ccc(C(F)(F)F)cc2)[C@@H](OC(C)=O)[C@@H]1OC(C)=O tested on Pseudomonas aeruginosa; recorded inhibition was 2.5

---

# Tested on: Escherichia coli
# assay_details: Inhibition of LuxR-dependent quorum sensing activity in Escherichia coli MT102 harboring pJBA132 assessed as inhibition of OHHL-induced GFP expression at 1 mM measured after 24 hrs by fluorescence assay relative to control
inhibition values for the compounds below.
A bare number is not enough; add the unit after it.

The following compounds have reported results that may help.
compound	target_under_test	inhibition
CCCCCCCCCCCC(=O)N[C@H]1[C@H](OC(C)=O)O[C@H](COC(C)=O)[C@@H](OC(C)=O)[C@@H]1OC(C)=O	Escherichia coli	31.5%
O=C(Cc1ccc(Cl)cc1)N[C@@H]1[C@@H](O)[C@H](O)[C@@H](CO)O[C@H]1O	Escherichia coli	4.6%
COc1ccc(CC(=O)N[C@H]2[C@H](OC(C)=O)O[C@H](COC(C)=O)[C@@H](OC(C)=O)[C@@H]2OC(C)=O)cc1	Escherichia coli	28.7%
O=C(CCCc1ccccc1)N[C@@H]1[C@@H](O)[C@H](O)[C@@H](CO)O[C@H]1O	Escherichia coli	46.7%
O=C(Cc1ccc(Br)cc1)N[C@@H]1[C@@H](O)[C@H](O)[C@@H](CO)O[C@H]1O	Escherichia coli	4.6%

Could you now consider this next compound?
The reported value for CC(=O)N[C@@H]1[C@@H](O)[C@H](O)[C@@H](CO)O[C@H]1O [N-ACETYLGLUCOSAMINE] in terms of inhibition is 69.3%
